This collection of values is drawn from the supplement of paper PMC7411054.

# Test system: HepG2-GM130-SQSTM1
# Experiment Summary: phenotypically active (imaging signature differs from DMSO and reproducible) at any of 0.3-9 uM (binary (1 = active, 0 = inactive)); higher = active
# Conditions: treatment time: 24 h
Structures can show the parent of a compound that is named as a salt.

| Compound | phenotypically active |
| --- | --- |
| O=C(O)CCNC(=O)c1ccc(/N=N/c2ccc(O)c(C(=O)O)c2)cc1 [balsalazide] | 0 |
| O=C1CN2Cc3c(ccc(Cl)c3Cl)N=C2N1 [Anagrelide hydrochloride] | 0 |
| OCc1cc(C(O)CNCCCCCCOCCCCc2ccccc2)ccc1O (centres undefined) | 1 |
| O=[N+]([O-])c1c(Nc2cc(F)cc(Cl)c2)ccc2nonc12 | 0 |
| c1ccc(CC2=NCCN2)cc1 | 0 |
| O=C1C=C(O)C(=O)c2ccccc21 [2-Hydroxy-[1,4]naphthoquinone] | 0 |
| C[C@](N)(Cc1ccc(O)c(O)c1)C(=O)O | 0 |
| C=CCc1ccc(O)c(-c2ccc(O)c(CC=C)c2)c1 | 0 |
| CC[N@@+]1(C)[C@@H]2CC[C@H]1C[C@@H](OC(=O)[C@]1(c3ccccc3)CC[C@H](C(=O)O[C@H]3C[C@H]4CC[C@@H](C3)[N@+]4(C)CC)c3ccccc31)C2 [beta- Belladonnine dichloroethylate] | 0 |
| COc1cc2c(cc1-c1c(C)noc1C)ncc1[nH]c(=O)n([C@H](C)c3ccccn3)c12 [I-BET 151 dihydrochloride] | 1 |
| O=C(/C=C/c1ccc2ccccc2n1)c1ccncc1 | 1 |
| O=C(c1ccc(C(=O)N2CCC(N3CCCC3)CC2)c(Nc2ccccc2)c1)N1CCC(N2CCCC2)CC1 | 1 |
| Cc1cccc(Nc2ccccc2C(=O)O)c1C | 0 |
| Brc1c(Br)c(Br)c2[nH]nnc2c1Br | 0 |
| CCn1c(=O)c2cc(C(N)=O)c(N)nc2n(C2CC2)c1=O | 0 |
| CN(C)CCCN1c2ccccc2Sc2ccc(C(F)(F)F)cc21 | 0 |
| CN1CC[C@]23c4ccccc4N[C@H]1[C@]21CCN(C)[C@H]3Nc2ccccc21 | 0 |
| C[C@H](CS)C(=O)N1CCC[C@H]1C(=O)O | 0 |
| CC(C)NC[C@H](O)COc1cccc2ccccc12 [(S)-(-)-Propranolol hydrochloride] | 0 |

* * *

# System: HepG2-ACTB-RAB5A
# Experiment Summary: phenotypically active (imaging signature differs from DMSO and reproducible) at any of 0.3-9 uM (binary (1 = active, 0 = inactive)); higher = active
# Conditions: treatment time: 24 h
Where a name gives a salt, the structure may show the parent alone.

| Molecule | Subject Of Test | phenotypically active |
| --- | --- | --- |
| CNCC[C@@H](Oc1ccccc1C)c1ccccc1 [atomoxetine] | HepG2-ACTB-RAB5A | 0 |
| CC(=O)NCC(=O)N1[C@@H]2CC[C@H]1c1ccc(Nc3ncc(C(F)(F)F)c(NC4CCC4)n3)cc12 | HepG2-ACTB-RAB5A | 1 |
| CC(C)[C@](O)(c1ccc2cc(OC(F)F)c(OC(F)F)cc2c1)c1c[nH]nn1 | HepG2-ACTB-RAB5A | 0 |
| CCOC(=O)N1CCC(=C2c3ccc(Cl)cc3CCc3cccnc32)CC1 [loratadine] | HepG2-ACTB-RAB5A | 0 |
| O=C(O)c1cc(/N=N/c2ccc(S(=O)(=O)Nc3ccccn3)cc2)ccc1O [Sulfasalazine] | HepG2-ACTB-RAB5A | 0 |
| O=C(c1ccc(C(=O)N2CCC(N3CCCC3)CC2)c(Nc2ccccc2)c1)N1CCC(N2CCCC2)CC1 | HepG2-ACTB-RAB5A | 0 |
| CC(C)c1ccc(-c2cc(=O)c3ccccc3o2)cc1 | HepG2-ACTB-RAB5A | 0 |
| CN(C)CCCNc1c2c(=O)n(C)c(=O)nc-2n(C)c2ccccc12 | HepG2-ACTB-RAB5A | 1 |
| O=C(NOCC1CC1)c1ccc(F)c(F)c1Nc1ccc(I)cc1Cl | HepG2-ACTB-RAB5A | 1 |
| COc1ccccc1OCC(O)CN1CCN(CC(=O)Nc2c(C)cccc2C)CC1 (centres undefined) [ranolazine] | HepG2-ACTB-RAB5A | 0 |
| CC(C)N(CCCNC(=O)Nc1ccc(C(C)(C)C)cc1)C[C@H]1O[C@@H](n2cc(Br)c3c(N)ncnc32)[C@H](O)[C@@H]1O | HepG2-ACTB-RAB5A | 1 |
| COc1cc(NC(=O)c2cccc(-n3cc(NC(=O)Nc4cccc(C)c4)cn3)c2)cc(OC)c1OC | HepG2-ACTB-RAB5A | 1 |
| COC(=O)C1=C(C)NC(C)=C(C(=O)OC(C)C)C1c1cccc2nonc12 (centres undefined) [isradipine] | HepG2-ACTB-RAB5A | 0 |
| CCCCCCCCCCCCCCCC(=O)C(F)(F)F | HepG2-ACTB-RAB5A | 0 |
| Nc1ccn([C@@H]2O[C@H](CO)[C@@H](O)[C@H]2O)c(=O)n1 [Cytidine] | HepG2-ACTB-RAB5A | 0 |
| Cc1nc(NC(=O)N2CCC[C@H]2C(N)=O)sc1-c1csc(C(C)(C)C)n1 | HepG2-ACTB-RAB5A | 1 |
| CCCc1cc2c(N3CCN(C4=NCC(C)(C)S4)CC3)ncnc2s1 [MI 2 dihydrochloride] | HepG2-ACTB-RAB5A | 1 |
| COc1cc2nc(-c3cc(F)ccc3O)nc(N[C@@H]3CNC[C@H]3C(C)(C)O)c2cc1OC | HepG2-ACTB-RAB5A | 1 |
| O=[N+]([O-])c1c(Nc2cc(F)cc(Cl)c2)ccc2nonc12 | HepG2-ACTB-RAB5A | 0 |

* * *

# Test system: A549-TP53BP1-CLTA
# Experiment Summary: lowest phenotypically active concentration; higher = less potent
# Conditions: treatment time: 24 h
Counter-ions that a name gives are not always drawn.
The reader will find reported lowest phenotypically active concentration values listed item by item below.
Readout: lowest phenotypically active concentration (µM)

| Molecule | Unit Annotation | Value Qualifier | Value Measured |
| --- | --- | --- | --- |
| COc1cc2c(NC3CCN(C(C)C)CC3)nc(N3CCC(F)(F)CC3)nc2cc1OCCCN1CCCC1 | µM | = | 3 |
| CC(=C/[C@@H](C)C(=O)c1ccc(N(C)C)cc1)/C=C/C(=O)NO | µM | ≤ | 0.3 |
| CS(=O)(=O)c1cccc(CNc2nc(Nc3ccc4c(c3)CCC(=O)N4)ncc2C(F)(F)F)c1 | µM | = | 3 |
| CC[C@H](CO)Nc1nc(NCc2ccccc2)c2ncn(C(C)C)c2n1 | µM | = | 9 |
| Cc1ccc(NC(=O)c2cccc(N(C)C)c2)cc1NC(=O)c1ccc(O)cc1 | µM | = | 3 |
| Cc1cc(Nc2ncc3c(n2)N(C)C(=O)N(c2cc(NC(=O)c4cccc(C(F)(F)F)c4)ccc2C)C3)n(C)n1 | µM | ≤ | 0.3 |
| Cc1ccc(C(=O)N(CCCN)[C@@H](c2oc3cc(Cl)ccc3c(=O)c2Cc2ccccc2)C(C)C)cc1 | µM | ≤ | 0.3 |
| CN(C)c1ccc(C(=O)NCCCCCCC(=O)NO)cc1 | µM | ≤ | 0.3 |
| CC(=O)NC1=NN(C(C)=O)C(C)(c2ccccc2)S1 (configuration not stated) | µM | = | 9 |
| N=C(N)c1ccc(OCCCCCOc2ccc(C(=N)N)cc2)cc1 | µM | = | 3 |
| CNCCC(Oc1ccc(C(F)(F)F)cc1)c1ccccc1 (configuration not stated) | µM | = | 9 |
| Cn1cc(-c2[nH]c3cc(NC(=O)[C@H](N)C4CCCCC4)cc4c3c2C=NNC4=O)cn1 | µM | = | 3 |
| CCNC(=O)c1noc(-c2cc(C(C)C)c(O)cc2O)c1-c1ccc(CN2CCOCC2)cc1 | µM | ≤ | 0.3 |
| O=C1NCCN1CCN1CCC(c2cn(-c3ccc(F)cc3)c3ccc(Cl)cc23)CC1 | µM | = | 9 |
| Nc1nc(Cl)nc2c1ncn2[C@H]1C[C@H](O)[C@@H](CO)O1 | µM | = | 3 |
| COc1cc2nc(N3CCN(C(=O)C4COc5ccccc5O4)CC3)nc(N)c2cc1OC (configuration not stated) | µM | = | 9 |
| O=C(CCCCSc1nc(-c2ccc(-c3ccccc3)cc2)cc(=O)[nH]1)NO | µM | ≤ | 0.3 |
| COc1cc(N2CCC(N3CCN(C)CC3)CC2)ccc1Nc1ncnc(Nc2ccccc2S(=O)(=O)C(C)C)n1 | µM | = | 9 |
| CCCCOc1cc(C(=O)NCCN(CC)CC)c2ccccc2n1 | µM | = | 9 |
| c1ccc2c(c1)Cc1c(Nc3ccc4c(c3)OCCO4)n[nH]c1-2 | µM | = | 3 |
| COc1ccc(S(=O)(=O)N(CCO)c2ccccc2CN(C)C/C=C/c2ccc(Cl)cc2)cc1 | µM | = | 9 |
| Cc1noc(C)c1-c1cc(O)cc(C(O)c2ccccc2)c1 (configuration not stated) | µM | = | 3 |
| Cc1ccc(C(=O)N(CCCN)[C@@H](c2nc3cc(Cl)ccc3c(=O)n2Cc2ccccc2)C(C)C)cc1 | µM | ≤ | 0.3 |
| COc1cc(C(=O)NC2CCN(C)CC2)c(F)cc1Nc1ncc2c(n1)N(C1CCCC1)CC(F)(F)C(=O)N2C [TAK 960 hydrochloride] | µM | ≤ | 0.3 |
| CCC1=C[C@@H]2CN(C1)Cc1c([nH]c3ccccc13)[C@@](C(=O)OC)(c1cc3c(cc1OC)N(C)[C@H]1[C@@](O)(C(=O)OC)[C@H](OC(C)=O)[C@]4(CC)C=CCN5CC[C@]31[C@@H]54)C2 | µM | ≤ | 0.3 |
| Cc1ccc([N+](=O)[O-])cc1S(=O)(=O)N(C)/N=C/c1cnc2ccc(Br)cn12 | µM | ≤ | 0.3 |
| Cn1cc(C2=C(c3ccc(Cl)cc3Cl)C(=O)NC2=O)c2ccccc21 | µM | ≤ | 0.3 |
| FC(F)(F)c1ccc(/C=C/c2nc(COc3ccc(CCCCn4ccnn4)cc3)co2)cc1 | µM | ≤ | 0.3 |
| CCn1c(=O)n([C@H]2CCCN(c3nccc(-c4cc5ccccc5o4)n3)C2)c2ccccc21 | µM | = | 9 |
| O=c1c(-c2ccc(O)cc2)coc2cc(O)cc(O)c12 | µM | = | 9 |
| C[C@@H](CN1CCC(n2c(=O)[nH]c3cc(Cl)ccc32)CC1)NC(=O)c1ccc2ccccc2c1 | µM | = | 9 |
| COc1ccc(-c2cnc(-c3cccc4c3-c3ccccc3C4=O)o2)cc1 | µM | ≤ | 0.3 |
| COc1cc2nc(-c3cc(F)ccc3O)nc(N[C@@H]3CNC[C@H]3C(C)(C)O)c2cc1OC | µM | = | 9 |
| Nc1ccc(-c2cccc3c(=O)cc(N4CCOCC4)oc23)cc1 | µM | = | 9 |
| CC1=C(C(=O)Nc2cc3cn[nH]c3cc2F)C(c2ccc(C(F)(F)F)cc2)CC(=O)N1 (configuration not stated) | µM | ≤ | 0.3 |
| O=C(O)C[C@H](O)C[C@H](O)/C=C/c1c(C2CC2)nc2ccccc2c1-c1ccc(F)cc1 | µM | = | 9 |
| O=C1c2ccccc2-c2nc3nonc3nc21 | µM | = | 3 |
